Consider the following molecules and their measured molar heat capacity at constant pressure readings.
Method Notes: molar heat capacity at constant pressure
Condition Summary: 329.15 K; 101.33 kPa; Liquid; Small sample (50 mg) DSC

| Molecule | molar heat capacity at constant pressure (J/K/mol) |
| --- | --- |
| OCCCCCCO [1,6-hexanediol] | 293.67 |
| OCCCCCCCCCO [1,9-nonanediol] | 403.84 |
| OCCCCO [1,4-butanediol] | 221.64 |
| OCCCO [propan-1,3-diol] | 190.87 |
| OCCCCCCCO [1,7-heptanediol] | 327.31 |
| OCCO [1,2-ethanediol] | 159.6 |
| OCCCCCO [1,5-pentanediol] | 255.92 |
